Quick reference for Fold over mock among some binders
target: T1, human cannabinoid receptor type 2 (CB2) (human, UniProt P34972 1-360); assay: binding to huCB2, fold over mock (method not described)
T1 construct: also called huCB2; full length hu CB2
T1 sequence (P34972 whole entry): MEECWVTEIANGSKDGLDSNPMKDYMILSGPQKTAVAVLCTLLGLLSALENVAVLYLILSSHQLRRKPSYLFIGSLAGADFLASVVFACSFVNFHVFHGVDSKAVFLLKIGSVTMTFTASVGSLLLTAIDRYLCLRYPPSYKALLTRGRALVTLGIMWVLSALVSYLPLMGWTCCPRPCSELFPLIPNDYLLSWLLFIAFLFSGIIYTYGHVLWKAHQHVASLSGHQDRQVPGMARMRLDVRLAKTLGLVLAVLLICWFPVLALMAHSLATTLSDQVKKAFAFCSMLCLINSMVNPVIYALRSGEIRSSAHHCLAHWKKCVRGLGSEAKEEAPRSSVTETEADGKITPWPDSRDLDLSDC
Quick reminder: number only, in fold, skip the unit.

Some solved cases for reference:
INSERT INTO measurements (binder, measure, measured) VALUES
  ('LIBC527919-1 (antibody, IgG1, V domains shown) VH: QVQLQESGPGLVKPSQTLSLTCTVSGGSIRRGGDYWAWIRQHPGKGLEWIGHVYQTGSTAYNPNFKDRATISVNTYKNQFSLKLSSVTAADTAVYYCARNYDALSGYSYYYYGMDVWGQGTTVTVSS VL: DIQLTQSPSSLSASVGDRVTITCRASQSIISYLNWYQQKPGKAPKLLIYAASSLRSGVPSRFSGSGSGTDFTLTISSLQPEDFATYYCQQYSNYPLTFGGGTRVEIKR', 'Fold over mock', 0.9),
  ('LIBC523661-1 (antibody, IgG1, V domains shown) VH: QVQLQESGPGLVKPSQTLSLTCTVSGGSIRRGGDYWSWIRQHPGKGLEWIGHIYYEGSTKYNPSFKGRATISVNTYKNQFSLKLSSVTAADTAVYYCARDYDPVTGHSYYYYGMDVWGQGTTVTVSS VL: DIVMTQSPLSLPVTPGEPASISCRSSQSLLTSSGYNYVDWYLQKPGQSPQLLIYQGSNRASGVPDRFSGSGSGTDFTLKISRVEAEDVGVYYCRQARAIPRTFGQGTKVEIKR', 'Fold over mock', 0.8),
  ('LIBC527814-1 (antibody, IgG1, V domains shown) VH: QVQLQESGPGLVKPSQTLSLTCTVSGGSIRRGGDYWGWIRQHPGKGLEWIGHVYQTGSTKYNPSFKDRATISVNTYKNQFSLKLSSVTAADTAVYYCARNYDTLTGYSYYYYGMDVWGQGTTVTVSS VL: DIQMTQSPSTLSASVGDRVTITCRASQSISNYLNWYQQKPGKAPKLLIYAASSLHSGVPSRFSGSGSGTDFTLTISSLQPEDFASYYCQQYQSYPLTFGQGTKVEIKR', 'Fold over mock', 0.9);

Please find the next binder below.
## Input I am curious: what Fold over mock value has been reported for LIBC527997-1 (antibody, IgG1, V domains shown) VH: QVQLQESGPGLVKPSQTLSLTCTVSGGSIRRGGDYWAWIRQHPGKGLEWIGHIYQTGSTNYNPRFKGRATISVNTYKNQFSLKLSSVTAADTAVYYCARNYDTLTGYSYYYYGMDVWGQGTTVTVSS VL: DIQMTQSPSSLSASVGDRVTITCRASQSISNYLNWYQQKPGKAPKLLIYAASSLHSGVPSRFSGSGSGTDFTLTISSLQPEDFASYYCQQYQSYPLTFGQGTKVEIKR ?
## Output 0.8
